molecular target: P2X4 (Homo sapiens); assay: Assay B: human P2X4 receptor cell line, mitochondrial photina luminescence (agonist Bz-ATP at EC50); format: cell-based; design: host or cells: HEK 293 (recombinant, constitutively expressing; with mitochondrial photina in Assay B); details: HEK human P2X4 cell line, photina luminescence, agonist Bz-ATP at EC50, average; read-out: human P2X4 Assay B avg Efficacy
Please provide measured Emax for the entries that follow.
Give just the numeric value; % need not be written.

Please provide the recorded Emax for NS(=O)(=O)c1cc(NC(=O)Cc2ccccc2OC(F)(F)F)ccc1Oc1cccc(Cl)c1 [Example 105] , tested on P2X4 (Homo sapiens).
75

Similarly, NS(=O)(=O)c1cc(NC(=O)Cc2ccccc2Cl)ccc1Oc1cccc(C(F)(F)F)c1 [Example 005] ?
89

Similarly, N#Cc1cccc(Oc2ccc(NC(=O)Cc3ccccc3Cl)cc2S(N)(=O)=O)c1 [Example 015] ?
80

Similarly, NS(=O)(=O)c1cc(NC(=O)Cc2ccccc2Cl)ccc1Oc1ccccc1Cl [Example 065] ?
70

----------
target: P2X4 (Homo sapiens, UniProt Q99571); experiment: Assay A: human P2X4 receptor cell line, FLIPR calcium assay (Fluo-8, agonist Bz-ATP at EC80); type: cell-based; design: host or cells: HEK 293 (recombinant, constitutively expressing; with mitochondrial photina in Assay B); settings: percentage of maximal inhibition; HEK human P2X4 cells, Fluo-8 FLIPR; read-out: human P2X4 Assay A avg Efficacy
Sequence (Q99571 whole entry): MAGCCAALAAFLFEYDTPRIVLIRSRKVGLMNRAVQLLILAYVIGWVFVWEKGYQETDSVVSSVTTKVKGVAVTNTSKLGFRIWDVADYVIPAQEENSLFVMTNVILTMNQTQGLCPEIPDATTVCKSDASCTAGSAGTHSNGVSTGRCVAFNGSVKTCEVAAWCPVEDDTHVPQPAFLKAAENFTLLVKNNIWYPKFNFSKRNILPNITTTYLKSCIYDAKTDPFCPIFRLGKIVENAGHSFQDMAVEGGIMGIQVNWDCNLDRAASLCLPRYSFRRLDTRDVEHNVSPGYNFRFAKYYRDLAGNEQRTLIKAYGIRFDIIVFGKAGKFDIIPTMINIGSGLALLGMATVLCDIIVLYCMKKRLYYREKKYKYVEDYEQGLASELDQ
Please provide measured Emax for the entries that follow.
Give just the numeric value; % need not be written.

# input compound: Cc1ccc(Cl)c(CC(=O)Nc2ccc(Oc3cccc(Cl)c3)c(S(N)(=O)=O)c2)c1Cl [Example 128] ; wanted: its Emax
77

Similarly, Cc1nc(-c2cccc(Oc3ccc(NC(=O)Cc4ccccc4Cl)cc3S(N)(=O)=O)c2)cs1 [Example 061] ?
88

Similarly, N#Cc1cc(Oc2ccc(NC(=O)Cc3ccccc3Cl)cc2S(N)(=O)=O)ccc1F [Example 047] ?
69

Similarly, NS(=O)(=O)c1cc(NC(=O)Cc2ccccc2Cl)ccc1OCC1(O)CCC(F)(F)CC1 [Example 287] ?
58

Similarly, NS(=O)(=O)c1cc(NC(=O)Cc2ccccc2Cl)ccc1Oc1ccc(Cl)cc1 [Example 066] ?
51

Similarly, Cc1ccc(Cl)c(CC(=O)Nc2ccc(Oc3cccc(Cl)c3)c(S(N)(=O)=O)c2)c1 [Example 097] ?
84

Similarly, NS(=O)(=O)c1cc(NC(=O)Cc2ccc(C(F)F)cc2)ccc1Oc1ccc(Cl)cc1 [Example 234] ?
73

Similarly, CC(C)c1cccc(Oc2ccc(NC(=O)Cc3ccccc3Cl)cc2S(N)(=O)=O)c1 [Example 004] ?
90

Similarly, NS(=O)(=O)c1cc(NC(=O)Cc2ccccc2Cl)ccc1Oc1cccc(Br)c1 [Example 059] ?
85

Similarly, NC(=O)c1cccc(Oc2ccc(NC(=O)Cc3ccccc3Cl)cc2S(N)(=O)=O)c1 [Example 017] ?
86

Similarly, CN(C)C(=O)c1cccc(CC(=O)Nc2ccc(Oc3cccc(Cl)c3)c(S(N)(=O)=O)c2)c1 [Example 202] ?
72

Similarly, NS(=O)(=O)c1cc(NC(=O)Cc2ccccc2C(F)F)cc(F)c1Oc1cccc(Cl)c1 [Example 290] ?
66

Similarly, NS(=O)(=O)c1cc(NC(=O)Cc2ccccc2Cl)ccc1OCCc1ccccc1 [Example 155] ?
87

Similarly, NS(=O)(=O)c1cc(NC(=O)Cc2c(F)cc(F)cc2Cl)ccc1Oc1cccc(Cl)c1 [Example 259] ?
76

Similarly, NS(=O)(=O)c1cc(NC(=O)Cc2ccccc2Cl)ccc1Oc1ccccc1Cl [Example 065] ?
81

Similarly, CC(=O)c1cccc(Oc2ccc(NC(=O)Cc3ccccc3Cl)cc2S(N)(=O)=O)c1 [Example 007] ?
93

Similarly, NS(=O)(=O)c1cc(NC(=O)Cc2ccc(Cl)cc2Cl)ccc1Oc1cccc(Cl)c1 [Example 110] ?
79
